Measured log10(IC50) by item
- tested.system: HLA-DRB1*04:01 (Homo sapiens, UniProt P01903+P01911, A100K/A169T/F76Y/I96L/K127E/L162R/M171V/N62H/P40V/Q125Y/R42H/S133A/S149N/S66Y/V115G/V209L/W38E)
- Construct: EBV transformed homozygous cell lines were used as sources of MHC molecules; endogenous in cells; host or cells: EBV transformed homozygous cell lines
- protocol.description: HLA class II peptide binding, inhibition of radiolabeled peptide binding to purified MHC
- assay.context: read-out: DRB1*04:01 binding capacity, WT peptide (IC50 nM)
A difference of one corresponds to tenfold IC50; all values are log10 with IC50 in nM.

For record CC(C)C[C@H](NC(=O)[C@H](CO)NC(=O)[C@H](CCCNC(=N)N)NC(=O)[C@H](CO)NC(=O)[C@@H](NC(=O)[C@H](CO)NC(=O)[C@@H]1CCCN1)[C@@H](C)O)C(=O)N[C@@H](Cc1ccc(O)cc1)C(=O)N[C@@H](C)C(=O)N[C@@H](CO)C(=O)N[C@@H](CO)C(=O)N1CCC[C@H]1C(=O)NCC(=O)NCC(=O)N[C@H](C(=O)O)C(C)C the listed log10(IC50) is 3.02

# log10(IC50) of CC(C)C[C@H](NC(=O)[C@H](CO)NC(=O)[C@H](Cc1ccccc1)NC(=O)[C@H](CC(=O)O)NC(=O)[C@@H](NC(=O)[C@H](CO)NC(=O)[C@H](CC(=O)O)NC(=O)[C@H](CCC(N)=O)NC(=O)[C@H](CC(C)C)NC(=O)[C@H](CC(C)C)NC(=O)[C@H](CCCNC(=N)N)NC(=O)[C@@H](NC(=O)CN)C(C)C)C(C)C)C(=O)N[C@@H](C)C(=O)N[C@@H](CC(=O)O)C(=O)O = 2.78

The reported log10(IC50) of the compound CC(C)C[C@H](NC(=O)[C@H](C)NC(=O)[C@H](CO)NC(=O)CN)C(=O)N[C@@H](CCCNC(=N)N)C(=O)N1CCC[C@H]1C(=O)N[C@@H](CO)C(=O)N[C@H](C(=O)N[C@@H](CO)C(=O)N[C@@H](CCCNC(=N)N)C(=O)N[C@@H](CO)C(=O)N[C@@H](CC(C)C)C(=O)N[C@@H](Cc1ccc(O)cc1)C(=O)N[C@@H](C)C(=O)N[C@@H](CO)C(=O)O)[C@@H](C)O was 2.93

# compound CC[C@H](C)[C@H](NC(=O)[C@H](CCCCN)NC(=O)[C@H](CC(N)=O)NC(=O)[C@H](CCC(N)=O)NC(=O)[C@H](CCC(N)=O)NC(=O)[C@H](CCC(=O)O)NC(=O)[C@H](CC(C)C)NC(=O)[C@H](Cc1ccccc1)NC(=O)[C@H](CCCNC(=N)N)NC(=O)[C@@H](N)C(C)C)C(=O)N[C@@H](CC(C)C)C(=O)N[C@@H](CC(C)C)C(=O)N[C@@H](C)C(=O)N[C@@H](CCC(=O)O)C(=O)N[C@@H](CC(C)C)C(=O)O ; its log10(IC50) = 2.71

Continuing:
Notebook: CSCC[C@H](NC(=O)[C@H](CCC(=O)O)NC(=O)[C@H](CCC(=O)O)NC(=O)[C@H](CCC(=O)O)NC(=O)[C@H](Cc1ccc(O)cc1)NC(=O)[C@H](CC(C)C)NC(=O)[C@H](CC(=O)O)NC(=O)CNC(=O)[C@@H](N)CC(C)C)C(=O)N[C@@H](CCCNC(=N)N)C(=O)N[C@@H](CCC(=O)O)C(=O)N[C@@H](CC(C)C)C(=O)N[C@@H](CCCNC(=N)N)C(=O)N[C@@H](CCCNC(=N)N)C(=O)N[C@@H](CCC(N)=O)C(=O)O , log10(IC50) read as 4.59

Input CC(C)C[C@H](NC(=O)[C@@H](N)CO)C(=O)N[C@@H](Cc1ccc(O)cc1)C(=O)N[C@@H](C)C(=O)N[C@@H](CO)C(=O)N[C@@H](CO)C(=O)N1CCC[C@H]1C(=O)NCC(=O)NCC(=O)N[C@H](C(=O)N[C@@H](Cc1ccc(O)cc1)C(=O)N[C@@H](C)C(=O)N[C@H](C(=O)N[C@@H](CCCNC(=N)N)C(=O)N[C@@H](CO)C(=O)O)[C@@H](C)O)C(C)C . Output log10(IC50): 3.79

Reference source for all entries: paper PMC5421785
